Tested on: iNKT
measurement description: Effect on immune response in human iNKT cells stimulated by antigen-presenting CD1d assessed as cellular expansion at 250 nM after 8 days by FACSCalibur flow cytometry relative to control
Assay type: functional
Where Activity equals or exceeds 1%, the correct label is Condition met; where it does not, the label is Condition not met.

CCCCC/C=C\C/C=C\CCCCCCCCCC(=O)N[C@@H](CO[C@@H]1O[C@@H](C)[C@@H](O)[C@H](O)[C@@H]1O)[C@H](O)[C@H](O)CCCCCCCCCCCCCC : Condition not met
CCCCCCCCCCCCCCCCCCCCCCCCCC(=O)N[C@@H](CO[C@@H]1O[C@@H](C)[C@@H](O)[C@H](O)[C@@H]1O)[C@H](O)[C@H](O)CCCCCCCCCCCCCC : Condition met
CCCCCCCCCCCCCCCCC(O)C(=O)N[C@@H](CO[C@@H]1O[C@@H](C)[C@@H](O)[C@H](O)[C@@H]1O)[C@H](O)[C@H](O)CCCCCCCCCCCCCC (stereo not given in full) : Condition met
CCCCCCCCCCCCCCCCCCCCCCCCCC(=O)N[C@@H](CO[C@H]1O[C@H](CO)[C@H](O)[C@H](O)[C@H]1O)[C@H](O)[C@H](O)CCCCCCCCCCCCCC : Condition met

Q. Reported Activity at or above 1%? `CCCCCCCCCCCCCCCCCCCCCCCC(=O)N[C@@H](CO[C@@H]1O[C@@H](C)[C@@H](O)[C@H](O)[C@@H]1O)[C@H](O)[C@H](O)CCCCCCCCCCCCCC`
A. Condition met
